# Particle size/ Ø (nm) per entry
Experiment: Size distribution, polydispersity and Z-potential of LNPs by dynamic light scattering (Malvern Zetasizer)
Type: physicochemical
Conditions: LNPs, standard formulation 50:10:38.5:1.5; DLS
Give me the value, and tack the unit on after it.

These recorded examples may help you get a feel for the data.
# COMPOUND, Particle size/ Ø (nm)
rows = [
    ("CCCCCCCCCCCCCOC(=O)CCSCCC(C(=O)NCCCn1ccnc1)C(=O)OC(CCCCCCCC)CCCCCCCC (stereo not shown)", "121.1 nm"),
    ("CCCCCCCCC(CCCCCC)C(=O)NC(CCSCCC(=O)OCC(CC)CCCC)C(=O)NCCN1CCN(C)CC1 (stereo not shown)", "206.7 nm"),
]

Task item: Supply reported Particle size/ Ø (nm) belonging to this compound: CCCCCCCC#CCOC(=O)CCSCCC(NC(=O)CCCCCCC/C=C\CCCCCCCC)C(=O)NCCCN1CCOCC1 (stereo not shown)
Reply: 234.3 nm

Task item: Given the compound CCCCCCCCCCCCCCCCCCOC(=O)CCSCCC(NC(=O)CCCCCCCCCCCCCCCCC)C(=O)NCCCN1CCOCC1 (stereo not shown) , write its reported Particle size/ Ø (nm).
Reply: 170.6 nm

###

Experiment: Apparent pKa of LNPs comprising the ionizable lipid (Table 6)
Details: standard formulation 50:10:38.5:1.5
VALUE_KIND: Apparent pKa
Give a plain numeric answer without units written out.

Examples with answers:
# COMPOUND, Apparent pKa
data = [
    ("CCCC#CCCOC(=O)CCSCCC(NC(=O)C(CCCCCC)CCCCCCCC)C(=O)NC1CCN(C)CC1 (stereo not shown)", 6.44),
    ("CCCCCCCCC(CCCCCC)COC(=O)CCSCCC(NC(=O)C(CCCCCC)CCCCCCCC)C(=O)NC1CCN(C)CC1 (stereo not shown)", 5.77),
    ("CCCCCCCC/C=C\\CCCCCCCCOC(=O)CCSCCC(NC(=O)C(CCCCCC)CCCCCCCC)C(=O)NC1CCN(C)CC1 (stereo not shown)", 7.00),
    ("CCCCCCCCCCCCCCOC(=O)CCSCCC(C(=O)NCCCN1CCOCC1)C(=O)OCC(CCCCCC)CCCCCCCC (stereo not shown)", 5.93),
    ("CCCCCCCC#CCOC(=O)CCSCCC(NC(=O)C(CCCCCC)CCCCCCCC)C(=O)NCC1CCN(C)CC1 (stereo not shown)", 6.74),
    ("CCCCCCCCC(CCCCCCCC)OC(=O)C(CCSCCC(=O)OCCCCCCCC(C)C)C(=O)NCCCn1ccnc1 (stereo not shown)", 6.38),
]

We next turn to a different compound, shown below.
Task item: Look up Apparent pKa of CCCCCCCCC(CCCCCC)COC(=O)CCSCCC(NC(=O)C(CCCCCC)CCCCCCCC)C(=O)NCC1CCN(C)CC1 (stereo not shown) and report it.
Reply: 7.07

###

Assay: Size distribution, polydispersity and Z-potential of LNPs by dynamic light scattering (Malvern Zetasizer)
Assay type: physicochemical
Details: LNPs, standard formulation 50:10:38.5:1.5; DLS
Listed below: Z Potential (± D.E.) [mV] values for each entry.
Output spec: scalar in mV, unitless text.

# MOLECULE, OBS_VALUE
records = [
    ("CCCCCCCC/C=C\\CCCCCCCC(=O)NC(CCSCC(=O)OCCCCCCCCCCCCC)C(=O)NCCCN1CCOCC1 (stereo not drawn)", -5.38),
    ("CCCCCCCCC(CCCCCC)COC(=O)CCSCCC(C(=O)NCCCN1CCOCC1)C(=O)OCC(CCCCCC)CCCCCCCC (stereo not drawn)", -9.73),
    ("CCCCCCCCC(CCCCCC)C(=O)NC(CCSCCC(=O)OCCCCCC)C(=O)NCCCN(CCO)CCO (stereo not drawn)", -2.86),
    ("CCCCCCCCCCCCCOC(=O)CCSCCC(NC(=O)C(CCCCCC)CCCCCCCC)C(=O)NCC1CCN(C)CC1 (stereo not drawn)", 0.83),
]

Task item: Hello, please tell me recorded Z Potential (± D.E.) [mV] for this one: CCCCCCCC#CCOC(=O)CCSCCC(NC(=O)C(CCCCCC)CCCCCCCC)C(=O)NCC1CCN(C)CC1 (stereo not drawn)
Reply: -2.94

Task item: Give reported Z Potential (± D.E.) [mV] value for CCCCCCCCCCCCCCCCOC(=O)CCSCCC(NC(=O)C(CCCCCC)CCCCCCCC)C(=O)NCCN(CC)CC (stereo not drawn)
Reply: -6.33

Task item: Answer with the recorded Z Potential (± D.E.) [mV] for the molecule listed here: CCCCCCCCOC(=O)CCSCCC(NC(=O)C(CCCCCC)CCCCCCCC)C(=O)NCCCn1ccnc1 (stereo not drawn)
Reply: -10.28

Task item: Give the reported Z Potential (± D.E.) [mV] for this molecule. CCCCCCCCC(CCCCCC)C(=O)NC(CCSCCC(=O)OCCCCCCCC(C)C)C(=O)NCCCN(C)C (stereo not drawn)
Reply: 0.00

Task item: Supply reported Z Potential (± D.E.) [mV] belonging to this molecule: CCCCCCCCCCC(CCCCCCCC)C(=O)NC(CCSCCC(=O)OCC(CCCCCC)CCCCCCCC)C(=O)NCC1CCN(C)CC1 (stereo not drawn)
Reply: -2.43

Task item: Using the record for CCCCCCCCCCCCCCOC(=O)CCSCCC(C(=O)NCCCn1ccnc1)C(=O)OC(CCCCCCCC)CCCCCCCC (stereo not drawn) , state its measured Z Potential (± D.E.) [mV].
Reply: -15.48

Task item: # return recorded Z Potential (± D.E.) [mV] for input CCCCCCCCC(CCCCCC)C(=O)NC(CCSCCC(=O)OCCCCCCC)C(=O)NCCCN(CCO)CCO (stereo not drawn)
Reply: -0.83

###

Item-by-item account of Particle size/ Ø (nm)
Experiment: Size distribution, polydispersity and Z-potential of LNPs by dynamic light scattering (Malvern Zetasizer)
Assay type: physicochemical
Details: LNPs, standard formulation 50:10:38.5:1.5; DLS
Give the number; nm is assumed, so skip it.

Here's what some known entries look like.
# COMPOUND, Particle size/ Ø (nm)
data = [
    ("CCCCCCCCCCCCC(CCCCCCCCCC)COC(=O)CCSCCC(NC(=O)C(CCCCCC)CCCCCCCC)C(=O)NC1CCN(C)CC1 (centres unmarked)", 185.3),
    ("CCCCCCCC#CCOC(=O)CCSCCC(NC(=O)CCCCCCCCCCCCCCCCC)C(=O)NC1CCN(C)CC1 (centres unmarked)", 152),
    ("CCCCCCCCC(CCCCCC)COC(=O)CCSCCC(C(=O)NC1CCN(C)CC1)C(=O)OC(CCCCCCCC)CCCCCCCC (centres unmarked)", 144.8),
    ("CCCCCCCCCCCCCCCCCCCCCCOC(=O)CCSCC(CC(=O)NC1CCN(C)CC1)C(=O)OCC(CCCCCC)CCCCCCCC (centres unmarked)", 178.1),
    ("CCCCCCCC/C=C\\CCCCCCCC(=O)NC(CCSCCC(=O)OCCCCCCCCCCCCCCCC)C(=O)NCCCN(CCO)CCO (centres unmarked)", 266.4),
    ("CCCCCCCCCCCCCOC(=O)CCSCCC(NC(=O)C(CCCCCC)CCCCCCCC)C(=O)NCCCn1ccnc1 (centres unmarked)", 184.3),
    ("CCCCCCCC/C=C\\CCCCCCCCOC(=O)CCSCCC(C(=O)NC1CCN(C)CC1)C(=O)OC(CCCCCCCC)CCCCCCCC (centres unmarked)", 181.3),
    ("CCCCCCCCOC(=O)CCSCC(CC(=O)NCCCn1ccnc1)C(=O)OC(CCCCCCCC)CCCCCCCC (centres unmarked)", 178),
    ("CCCCCCCCC(CCCCCC)COC(=O)C(CSCCC(=O)OCCCCCC(C)C)CC(=O)NC1CCN(C)CC1 (centres unmarked)", 137.8),
    ("CCCCCCCCC(CCCCCC)COC(=O)CCSCCC(NC(=O)C(CCCCCC)CCCCCCCC)C(=O)NCC1CCN(C)CC1 (centres unmarked)", 160.8),
]

Task item: Specify measured Particle size/ Ø (nm) for CCCCCCCCC(CCCCCC)C(=O)NC(CCSCCC(=O)OCCCCCCCC(C)C)C(=O)NC1CCN(C)CC1 (centres unmarked) .
Reply: 181

Task item: Kindly indicate its recorded Particle size/ Ø (nm). Item: CCCCCCCCC(CCCCCCCC)OC(=O)C(CCSCCC(=O)OCCCCCCCC(C)C)C(=O)NCCCn1ccnc1 (centres unmarked)
Reply: 116.8

Task item: Query Particle size/ Ø (nm) for CCCCCCCCCCC(CCCCCCCC)C(=O)NC(CCSCCC(=O)OCC(CCCCCC)CCCCCCCC)C(=O)NC1CCN(C)CC1 (centres unmarked)
Reply: 142.5

Task item: // fetch Particle size/ Ø (nm) given entry CCCCCCCCCCCCCOC(=O)CCSCC(CC(=O)NCCCn1ccnc1)C(=O)OC(CCCCCCCC)CCCCCCCC (centres unmarked)
Reply: 160.7
